Test system: RNA polymerase II Serine 5 phosphorylation (CDK7) in A549 cells
pIC50: −log10 of the molar value.
Decision: pIC50 >= 7 yields Y, all other cases yield N.

Reference set (4 entries):
- compound: "Cc1cc(C2CCN(C3CN(C(=O)C#CC(C)C)C3)CC2)cc2c1O[C@H](C)c1c(ncnc1N1CCS(=O)(=O)CC1)N2"
  experimental_target: "RNA polymerase II Serine 5 phosphorylation (CDK7) in A549 cells"
  class: "Y"
- compound: "CCC#CC(=O)N1CC[C@@H](N2CC(c3cc(C)c4c(c3)Nc3ncnc(N5CCS(=O)(=O)CC5)c3[C@@H](C)O4)C2)C1 (single isomer, unassigned)"
  experimental_target: "RNA polymerase II Serine 5 phosphorylation (CDK7) in A549 cells"
  class: "Y"
- compound: "C=CC(=O)N1CCC(N2CC(c3cc(C)c4c(c3)Nc3ncnc(N5CCOCC5)c3CO4)C2)CC1"
  experimental_target: "RNA polymerase II Serine 5 phosphorylation (CDK7) in A549 cells"
  class: "N"
- compound: "C=CC(=O)N1CCC(N2CC(c3cc(F)c4c(c3)Nc3ncnc(N5CCOCC5)c3[C@@H](C)O4)C2)CC1"
  experimental_target: "RNA polymerase II Serine 5 phosphorylation (CDK7) in A549 cells"
  class: "N"

Could you please find out whether C=CC(=O)N1CC(N2CCC(c3cc(F)c4c(c3)Nc3ncnc(N5CCOCC5)c3CO4)CC2)C1 has pIC50 that meets 7 or exceeds it?
N
